Assay: Acute toxicity (LD50), intravenous injection
Conditions: mouse, in vivo, male ddY-strain mice, read-out: LD50, Table 19
metric: LD50 at 72 h (mg/kg)
Numbers only, in mg/kg.

Sample records with LD50 at 72 h:
[[record]]
molecule = "CCN(CC)C(CCNc1nn(CCC(C)N(C)C)c2ccccc12)CC(C)C (centres unmarked)"
unit_of_measure = "mg/kg"
measured_value = 247

[[record]]
molecule = "Nc1nn(CCCN2CCCCCC2)c2ccccc12"
unit_of_measure = "mg/kg"
measured_value = 184

[[record]]
molecule = "c1ccc2c(NCCN3CCCCC3)n[nH]c2c1"
unit_of_measure = "mg/kg"
measured_value = 146

[[record]]
molecule = "CC(CCNc1nn(CCC(C)N2CCCCC2)c2ccccc12)N(C)C (centres unmarked)"
unit_of_measure = "mg/kg"
measured_value = 124

[[record]]
molecule = "CCN(CC)CCCn1nc(N)c2ccccc21"
unit_of_measure = "mg/kg"
measured_value = 243


I need LD50 at 72 h for every entry listed below, if you could help.
1. CN(C)CCNc1n[nH]c2ccccc12
2. CCCCN(CCCC)CCCNc1nn(CCCN(CC)CC)c2ccccc12
3. CC1CCCCN1CCCNc1n[nH]c2ccccc12 (centres unmarked)
4. c1ccc2c(NCCCCCCN3CCCCC3)n[nH]c2c1
5. CCN(CC)CCCNc1nn(CCCN2CCCCC2)c2ccccc12
6. Nc1nn(CCCN2CCCC2)c2ccccc12
7. c1ccc2c(c1)c(NCCCN1CCCCC1)nn2CCCN1CCCCC1
8. CC(CCn1nc(N)c2ccccc21)N1CCCCC1 (centres unmarked)

OUTPUT:
334
179
91
143
168
98
102
104

For each entry beneath this line, provide reported LD50 at 72 h.
1. CCN(CC)CCCNc1nn(CCC(C)N2CCCCC2)c2ccccc12 (centres unmarked)
2. CCN(CC)CCCNc1nn(CCC(C)N(C)C)c2ccccc12 (centres unmarked)

OUTPUT:
1: 167; 2: 272

Hi, could you look up LD50 at 72 h for each item in my list?
1. CC(C)CC(CCn1nc(N)c2ccccc21)N(C)C (centres unmarked)
2. Nc1nn(CCCN2CCCCC2)c2ccccc12

OUTPUT:
[154, 102]
